Target: human progesterone receptor-A [PRA] isoform (Homo sapiens, UniProt P06401)
Construct: host or cells: insect SF21 cells (baculovirus)
Sequence (P06401 1-769 isoform P06401-2): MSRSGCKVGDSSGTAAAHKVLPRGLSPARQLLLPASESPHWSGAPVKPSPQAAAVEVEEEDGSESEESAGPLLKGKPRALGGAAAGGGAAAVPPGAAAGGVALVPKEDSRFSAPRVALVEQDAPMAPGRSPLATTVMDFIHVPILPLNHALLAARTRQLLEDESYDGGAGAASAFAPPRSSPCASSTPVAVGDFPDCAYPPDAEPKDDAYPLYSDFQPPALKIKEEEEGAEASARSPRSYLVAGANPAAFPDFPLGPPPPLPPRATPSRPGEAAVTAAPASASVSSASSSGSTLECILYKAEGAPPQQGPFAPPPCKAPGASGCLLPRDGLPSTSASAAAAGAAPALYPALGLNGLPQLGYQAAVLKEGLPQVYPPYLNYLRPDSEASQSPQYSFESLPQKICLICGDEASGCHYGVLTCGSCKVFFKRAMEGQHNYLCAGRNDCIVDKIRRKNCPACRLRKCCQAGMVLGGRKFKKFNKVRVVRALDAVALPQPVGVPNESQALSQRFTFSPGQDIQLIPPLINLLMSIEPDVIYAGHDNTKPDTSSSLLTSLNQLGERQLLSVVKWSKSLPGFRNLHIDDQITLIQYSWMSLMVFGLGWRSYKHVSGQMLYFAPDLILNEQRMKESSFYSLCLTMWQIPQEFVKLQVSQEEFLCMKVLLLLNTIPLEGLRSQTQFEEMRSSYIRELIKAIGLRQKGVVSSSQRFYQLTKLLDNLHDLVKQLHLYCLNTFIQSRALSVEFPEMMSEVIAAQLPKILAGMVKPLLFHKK
Experiment: Radioligand binding with human progesterone receptor cytosol ([3H]-progesterone competition)
Settings: PRA cytosol expressed in insect SF21 cells, [3H]Prog ~0.8 nM, 4° C. overnight; Ki by Cheng-Prusoff, KL ~4.5 nM; read-out: Ki (nM) PR
parameter-measured: Ki (nM)

Solved cases below.
compound: COc1cccc2c1-c1ccc3c(c1C(=Cc1ccccc1)O2)C(C)=CC(C)(C)N3 (mixture of isomers) [Example 18]
measured: 1040
--
compound: C=CCC1Oc2ccc(OC(=O)CCNC(C)=O)c(OC)c2-c2ccc3c(c21)C(C)=CC(C)(C)N3 (racemic) [Example 428]
measured: 204
--
compound: COc1c(O)ccc2c1-c1ccc3c(c1C(Cc1cc(F)cc(F)c1)O2)C(C)=CC(C)(C)N3 (stereo not shown) [Example 382]
measured: 150

[I] CC1=C[C@@H]([C@H]2Oc3ccc(O)c(Cl)c3-c3ccc4c(c32)C(C)=CC(C)(C)N4)CCC1 [Example 419]
[II] C=CCC1Oc2ccc(OCSC)c(OC)c2-c2ccc3c(c21)C(C)=CC(C)(C)N3 (stereo not shown) [Example 436]
stdin: Hey, which is lower on measured Ki, I or II ? // respond with label for picked entry
stdout: I
(I: 286 nM, II: 5920 nM)
